tested on: SK-UT-1 (Other Solid Carcinomas); assay: combination Emax (second highest fraction inhibited in the dose matrix, 72 h); higher = more inhibition; extreme values may be limits of the assay
Listed compounds paired with reported combination Emax
# answer = number (no unit)

Worked examples follow.
{"columns": ["COMPOUND", "ASSAY_READOUT", "QUANTITATIVE_READOUT"],
 "data": [
  ["Cc1cc2ncnn2cc1Nc1ncc2c(n1)n(C1CCOCC1)c(=O)n2C [AZD7648] + C=CCn1c(=O)c2cnc(Nc3ccc(N4CCN(C)CC4)cc3)nc2n1-c1cccc(C(C)(C)O)n1 [AZD1775] (first compound max 10 µM, partner max 1 µM)", "combination Emax", 0.657],
  ["Cc1c2c(nn1C)CSCc1cc(n(C)n1)CSc1cc(c3ccccc3c1)OCCCc1c(C(=O)O)n(C)c3c-2c(Cl)ccc13 [AZD5991] + C1CN(CCC1(C(=O)N[C@@H](CCO)C2=CC=C(C=C2)Cl)N)C3=NC=NC4=C3C=CN4 [Capivasertib] (first compound max 1 µM, 7x7, partner max 3 µM)", "combination Emax", 0.24],
  ["Cc1c2c(nn1C)CSCc1cc(n(C)n1)CSc1cc(c3ccccc3c1)OCCCc1c(C(=O)O)n(C)c3c-2c(Cl)ccc13 [AZD5991] + C[C@@H]1COCCN1C2=NC(=NC(=C2)C3(CC3)[S@](=N)(=O)C)C4=C5C=CNC5=NC=C4 [AZD6738] (first compound max 1 µM, 7x7, partner max 10 µM)", "combination Emax", 0.801]
]}

Field: next compound
**Q:** # query: combination Emax of entry C[C@@H]1COCCN1c1cc(C2([S@](C)(=N)=O)CC2)nc(-c2ccnc3[nH]ccc23)n1 [AZD6738] + C1CC(C1)(C(=O)[O-])C(=O)[O-].N.N.[Pt+2] [Carboplatin] (first compound max 10 µM, 7x7, partner max 10 µM)
**A:** 0.779

Reference source for all entries: the supplement of paper PMC11061612
